Ref: paper PMC10298626

# experimental.protocol: in vitro
# Format: cell-based
# test.context: mouse; RAW264.7 cells; 20 μM for 2 h, then LPS (500 ng/mL) 20 h; read-out: Cell viability, Average (%)
Attribute: viability at 22 h, 20 μM
Respond numerically; units are % and should not be typed.

The compound listed as Cc1ccccc1C1C(C#N)=C(N)Oc2c1c(=O)oc1ccccc21 (centres unmarked) shows viability at 22 h, 20 μM equal to 118

The compound listed as N#CC1=C(N)Oc2c(c(=O)oc3ccccc23)C1c1cccc(F)c1 (centres unmarked) shows viability at 22 h, 20 μM equal to 106

The compound listed as N#CC1=C(N)Oc2c(c(=O)oc3ccccc23)C1c1cccc(OC(F)(F)F)c1 (centres unmarked) shows viability at 22 h, 20 μM equal to 114
